Biological target: Aspartate--tRNA(Asp/Asn) ligase (Mycobacterium tuberculosis (strain ATCC 25618 / H37Rv)); also: in the data most compounds retested in dose-response had high values
Assay: Assay for Asp RNA synthetase-1 from Mycobacterium tuberculosis
Assay type: functional
Parameters: scale not given: direction of the effect not stated beside the values
Conditions: 30 µM
parameter measured: Percent Effect (%)

1. O=C(NCCNC(=O)N1CCC(c2ccccc2)C1)C1CC1 (stereo unspecified) | -0.747
2. Cc1ccc(C#N)cc1NC(=O)NC1CCCN(c2ncccn2)C1 (stereo unspecified) | 1.97
3. Cc1cccn2c(=O)cc(CN3CCCCC3Cn3cncn3)nc12 (stereo unspecified) | -0.0141
4. CCc1nc2n(n1)CC(NCC(=O)Nc1nccs1)CC2 (stereo unspecified) | -2.71
5. O=C(NCCNc1ncccn1)C1CCN(C(=O)C2CC2)CC1 | 1.89
6. c1ccc2sc(CN3CCOC(Cn4cccn4)C3)nc2c1 (stereo unspecified) | -0.285

---

Target: AMP-activated protein kinase, AMPK (Homo sapiens) (UniProt P54646+O43741+P54619+Q9UGJ0+Q9Y478+Q13131+Q9UGI9)
Test: AMP-dependent Kinase enzyme assay. An in vitro enzyme assay that detects ADP turnover that is directly proportional to AMPK activity. This uses naive AMPK that is activated during the assay with MK-8722
Format: functional
Parameters: scale not given: direction of the effect not stated beside the values
Conditions: 30 µM
parameter measured: Percent Effect (%)

1) Cc1nc(C2(NCC(=O)NC(=O)NCc3cccs3)CCCCC2)no1 | -2.76
2) CN1CCC2(CC1)CNC(=O)c1ccccc1O2 | 13.4
3) O=C(Cc1csc(-c2ccco2)n1)N1CCN(CCO)CC1 | 8.43
4) CCc1nnc(C(C)N2CCCN(C(=O)Oc3ccccc3)CC2)o1 (centres undefined) | 0.0863
5) CC(C)N1CCC2(CCN(C(=O)c3cccnc3)CC2)C1 | 4.26
6) COc1ccc(CN2C[C@@H]3OCCN(c4ncccn4)[C@@H]3C2)cc1 | 11.4
7) CCN1CCN(C(=O)COc2ccc(CN(C)S(C)(=O)=O)cc2)CC1 | -0.955
8) CC(C)[C@@H]1CN(C(=O)C2(c3ccccc3)CCN(C)CC2)C[C@H]1C(=O)O | 3.48
9) CC(c1ccc(F)cc1)N1CCN(Cc2ccc(C#N)cc2)CC1 (centres undefined) | -5.75
10) CC(C)c1cc(N2CCC3(CC2)CN(C)CCN3C)ncn1 | -4.27
11) Cn1cc(CN2CC[C@H]3CO[C@H](CNc4ncccn4)[C@H]3C2)cn1 | 1.6
12) NC1(c2nc(C(F)(F)F)cc(=O)[nH]2)CCCCC1 | -5.09
13) Cc1oc(-c2ccco2)nc1CC(=O)N1CCN(C2CCC2)CC1 | -1.25
14) O=C(C1CCC1)N1CCC2(CC1)OCCO2 | 2.75
15) Cc1ccc(CC(=O)N2CCN(CC(O)c3ccccc3)CC2)cn1 (centres undefined) | -2.25
16) Fc1cnc(N2CCO[C@H]3CN(CC4CCCC4)C[C@H]32)nc1 | -6.38
17) COc1ccc(-c2n[nH]cc2C2SCC(=O)Nc3[nH]ncc32)cc1 (centres undefined) | 21.7
18) O=C1OCCC1N1CCN(C(=O)Cc2c[nH]c3ccccc23)CC1 (centres undefined) | -14.5
19) CN(C)c1ncc2c(n1)C1(CCN(Cc3ccccc3)C1)COC2 (centres undefined) | 3.1
20) CNCCc1nc2cc(F)ccc2[nH]1 | -8.1
21) CCn1cc(CN2CCCN(C(=O)Cc3ccc(C)nc3)CC2)cn1 | 0.798
22) Cc1nc(C)c(CC(=O)N2C[C@@H]3CC[C@H](C2)N(CC2CCC2)C3)c(=O)[nH]1 | -35.4
23) Cc1n[nH]c2c1C(c1cnn(C)c1)SCC(=O)N2 (centres undefined) | 11.3
24) CN1CCCC(Cc2cncc(Br)c2)CC1 (centres undefined) | 13.7
